measured metric: log10(Ki) (log10 of the value in nM)
Use the decimal logarithm of Ki (nM).

Record for "CNC(=O)[C@@H](Cc1csc2ccccc12)NC(=O)[C@@H](CC(=O)NO)CC(C)C" under target or system Matrix metalloproteinase-9 (Homo sapiens, UniProt P14780): log10(Ki) reported as -0.08

Record for "CC(C)C[C@H](CC(=O)NO)C(=O)N[C@@H](Cc1c[nH]c2ccccc12)C(=O)N(C)C" under target or system Matrix metalloproteinase-9 (Homo sapiens, UniProt P14780): log10(Ki) reported as 1.34

Record for "CC(C)C[C@H](CC(=O)NO)C(=O)N[C@H](Cc1cccnc1)C(=O)NCc1ccccc1" under target or system Matrix metalloproteinase-9 (Homo sapiens, UniProt P14780): log10(Ki) reported as 0.43

Record for "CC(C)C[C@H](CC(=O)NO)C(=O)N[C@H](Cc1ccc2ccccc2c1)C(=O)NCCCN1CCOCC1" under target or system Matrix metalloproteinase-9 (Homo sapiens, UniProt P14780): log10(Ki) reported as 0.54

Record for "CC(C)C[C@H](CC(=O)NO)C(=O)N[C@@H](Cc1c[nH]c2ccccc12)C(=O)NCCc1ccc(O)cc1" under target or system Matrix metalloproteinase-9 (Homo sapiens, UniProt P14780): log10(Ki) reported as 0.04

Record for "CC(C)C[C@H](CC(=O)NO)C(=O)N[C@H](Cc1ccc(-c2ccccc2)cc1)C(=O)NCc1ccccc1" under target or system Matrix metalloproteinase-9 (Homo sapiens, UniProt P14780): log10(Ki) reported as 0.48

Record for CC(C)C[C@H](CC(=O)NO)C(=O)N[C@@H](Cc1c[nH]c2ccccc12)C(=O)NC1CCc2ccccc21 (single isomer, unassigned) under target or system Matrix metalloproteinase-9 (Homo sapiens, UniProt P14780): log10(Ki) reported as 2.00

Record for "CC(C)C[C@H](CC(=O)NO)C(=O)N[C@@H](Cc1c[nH]c2ccccc12)C(=O)N[C@@H](C)c1ccccc1" under target or system Matrix metalloproteinase-9 (Homo sapiens, UniProt P14780): log10(Ki) reported as 0.57

Record for "CC(C)C[C@H](CC(=O)NO)C(=O)N[C@H](Cc1ccc2ccccc2c1)C(=O)NCCc1ccc(O)cc1" under target or system Matrix metalloproteinase-9 (Homo sapiens, UniProt P14780): log10(Ki) reported as 0.23

Record for "CC(C)C[C@H](CC(=O)NO)C(=O)N[C@@H](Cc1c[nH]c2ccccc12)C(=O)NCc1nc2ccccc2[nH]1" under target or system Matrix metalloproteinase-9 (Homo sapiens, UniProt P14780): log10(Ki) reported as 0.48

* * *

Field: pKi. Provide a value for each of the compounds that follow.
Units for pKi: none; it is -log10 of a concentration expressed in mol/L.

Record for "CC(C)C[C@H](CC(=O)NO)C(=O)N[C@H](Cc1ccc(-c2ccccc2)cc1)C(=O)NCc1ccccc1" under target or system Neutrophil collagenase (Homo sapiens, UniProt P22894): pKi reported as 8.44

Record for "CC(C)C[C@H](CC(=O)NO)C(=O)N[C@@H](Cc1c[nH]c2ccccc12)C(=O)N1CCOCC1" under target or system Neutrophil collagenase (Homo sapiens, UniProt P22894): pKi reported as 8.16

Record for "CC(C)C[C@H](CC(=O)NO)C(=O)N[C@H](Cc1ccncc1)C(=O)N[C@@H](C)c1ccccc1" under target or system Neutrophil collagenase (Homo sapiens, UniProt P22894): pKi reported as 9.15

Record for "CNC(=O)[C@@H](Cc1cnc2ccccc2c1)NC(=O)[C@@H](CC(=O)NO)CC(C)C" under target or system Neutrophil collagenase (Homo sapiens, UniProt P22894): pKi reported as 9.00

Record for CC(C)C[C@H](CC(=O)NO)C(=O)N[C@@H](Cc1c[nH]c2ccccc12)C(=O)NC1CCc2ccccc21 (single isomer, unassigned) under target or system Neutrophil collagenase (Homo sapiens, UniProt P22894): pKi reported as 6.89

Record for "CC(C)C[C@H](CC(=O)NO)C(=O)N[C@@H](Cc1c[nH]c2ccccc12)C(=O)NCc1ccccn1" under target or system Neutrophil collagenase (Homo sapiens, UniProt P22894): pKi reported as 9.37

Record for "CC(C)C[C@H](CC(=O)NO)C(=O)N[C@@H](Cc1c[nH]c2ccccc12)C(=O)NCc1ccncc1" under target or system Neutrophil collagenase (Homo sapiens, UniProt P22894): pKi reported as 9.54

Record for "CNC(=O)[C@@H](CC(C)C)NC(=O)[C@@H](CC(=O)NO)CC(C)C" under target or system Neutrophil collagenase (Homo sapiens, UniProt P22894): pKi reported as 9.19

Record for "CC(C)C[C@H](CC(=O)NO)C(=O)N[C@H](Cc1ccc(-c2ccccc2)cc1)C(=O)NCCc1ccc(O)cc1" under target or system Neutrophil collagenase (Homo sapiens, UniProt P22894): pKi reported as 7.89

Record for "CC(C)C[C@H](CC(=O)NO)C(=O)N[C@@H](Cc1c[nH]c2ccccc12)C(=O)NCCCN1CCOCC1" under target or system Neutrophil collagenase (Homo sapiens, UniProt P22894): pKi reported as 9.41

Record for "CC(C)C[C@H](CC(=O)NO)C(=O)N[C@H](Cc1ccc2ccccc2c1)C(=O)N[C@@H](C)c1ccccc1" under target or system Neutrophil collagenase (Homo sapiens, UniProt P22894): pKi reported as 7.85

Record for "CC(C)C[C@H](CC(=O)NO)C(=O)N[C@@H](Cc1c[nH]c2ccccc12)C(=O)NC1CCCC1" under target or system Neutrophil collagenase (Homo sapiens, UniProt P22894): pKi reported as 8.80

Record for "CC(C)C[C@H](CC(=O)NO)C(=O)N[C@H](Cc1cccnc1)C(=O)NCc1ccccc1" under target or system Neutrophil collagenase (Homo sapiens, UniProt P22894): pKi reported as 9.20
